The values you see were collected from PubChem BioAssay (NCI).

Entries and their TGI values follow.
# System: SK-MEL-2 melanoma
# METHOD_DESCRIPTION: NCI tumour cell line growth inhibition, 48 h

# count of solved cases: 5
| COMPOUND | QUANTITY_MEASURED | RESULT |
| --- | --- | --- |
| CCCCCC(=O)NC(=S)Nc1nn[nH]n1 | TGI | > 100 µM |
| N#C/C(=C\n1ccc(=O)[nH]c1=S)C(N)=O | TGI | > 100 µM |
| Cc1cc(I)cc(CN(C)CCCN2CCOCC2)c1O | TGI | 38.5 µM |
| OCC1OC(n2cnc3c(Cl)nc(Nc4ccccc4)nc32)CC1O (stereo unspecified) | TGI | > 100 µM |
| COC(=O)N/N=C(\C)C(CN1CCCCC1)C(C1=C(O)c2ccccc2OC1)c1ccccc1 (stereo unspecified) | TGI | > 100 µM |

In: Recorded TGI for C1CCC2C(C1)CCCC2NC1=NCCO1 (stereo unspecified) , please?
Out: > 100 µM

###

# System: SNB-19 CNS
# METHOD_DESCRIPTION: NCI tumour cell line growth inhibition, 48 h
Entries and their TGI values follow.

| COMPOUND | TGI |
| --- | --- |
| C=C1C[C@]23CCC4C(C)(C)C(=O)CC[C@]4(C)C2C[C@H]1C(O)C3=O (some centres undefined) | > 75 µM |
| CCOC(=O)/C=C(/C(=O)OCC)n1ccc(N)nc1=O | > 100 µM |
| COc1ccc(C2c3cc(OC)c(OC)cc3C(Cc3ccc([N+](=O)[O-])cc3)C2c2ccc([N+](=O)[O-])cc2)cc1OC (centres undefined) | > 100 µM |
| CCc1ccccc1NC(=O)c1sc2nc3c(cc2c1N)C(=O)CCC3 | > 100 µM |
| O=C(Nc1ccc(CO)cc1)c1coc2ccccc2c1=O | > 100 µM |
| CC(=O)/C=C/c1ccc(C#Cc2ccccc2)s1 | 25.9 µM |

In: Recorded TGI for Cc1ccn2c(=O)cc(-c3ccccc3)nc2c1 , please?
Out: > 100 µM

In: And then NC1=NS(=O)(=O)Nc2nc(-c3ccc(Cl)cc3)c(-c3ccc(Cl)cc3)nc21 , what is it?
Out: > 100 µM

In: And then Cc1cc(C)c(C2[C@H]3C(=O)N(c4ccc(Cc5ccc(N6C(=O)[C@@H]7ON(c8ccccc8)C(c8c(C)cc(C)cc8C)[C@@H]7C6=O)cc5)cc4)C(=O)[C@H]3ON2c2ccccc2)c(C)c1 (some centres undefined) , what is it?
Out: > 100 µM

###

# Test system: HCC-2998 colon
# METHOD_DESCRIPTION: NCI tumour cell line growth inhibition, 48 h
Entries and their TGI values follow.

# count of solved cases: 4
| COMPOUND | TARGET | TGI |
| --- | --- | --- |
| CCN1C(=O)C(=C/C=C/c2ccc([N+](=O)[O-])cc2)C(=O)N(CC)C1=S | HCC-2998 colon | > 100 µM |
| CN(C)C(=S)/N=c1\ss/c(=N\C(=S)N(C)C)n1-c1ccc(Cl)c(Cl)c1 | HCC-2998 colon | > 100 µM |
| NC(=O)NNC(=O)c1nc[nH]c1[N+](=O)[O-] | HCC-2998 colon | > 100 µM |
| Cc1cn(C(Cc2ccccc2)OCCO)c(=O)[nH]c1=O (stereo not drawn) | HCC-2998 colon | > 100 µM |

In: Recorded TGI for COC(=O)/C(C#N)=C1\CCC(O)N1 (stereo not drawn) , please?
Out: > 100 µM

In: And then CCCCCCCCCCCCCCCCCC(=O)O[C@H](COC(=O)CCCCCCCCCCC)COC(=O)CCCCCCCCCCCCCCC , what is it?
Out: > 100 µM

In: And then CCOC(=O)c1c[nH]c2oc(/C=N/N3CC(CN4CCOCC4)OC3=O)cc2c1=O (stereo not drawn) , what is it?
Out: > 100 µM

In: And then CC(C)C(=O)/C=C/c1ccc(Br)cc1 , what is it?
Out: 30.9 µM

In: And then O=C1CC2C(=O)N(Cc3ccccc3)C1C=C2S(=O)(=O)c1ccccc1 (stereo not drawn) , what is it?
Out: > 100 µM

In: And then CCn1nc2c3c(ncn3C(C)(C)O2)c1=O , what is it?
Out: > 100 µM

In: And then N.N.N.N.[Cl-].[Co+3].[N-]=[N+]=[N-].[N-]=[N+]=[N-] , what is it?
Out: > 100 µM

###

Quick note: these are GI50 numbers for system: MDA-MB-435

| SAMPLE_SMILES | GI50 |
| --- | --- |
| NC(N)=NCCCCCNc1noc(Cc2c[nH]c3cc(Br)ccc23)n1 | 19300 nM |
| C[C@]12CC[C@@H]3c4ccc(O)cc4CC[C@H]3[C@@H]1CC[C@@H]2NS(=O)(=O)c1cccc(F)c1 | 2580 nM |
| Cc1cc(N/N=C/c2nc(-c3ccc(Br)cc3)oc2C)c2cc(Br)ccc2n1 | 2250 nM |
| Cn1cc(C2=C(c3cn(CCCCCN)c4ccccc34)C(=O)NC2=O)c2ccccc21 | 2400 nM |

In: Recorded GI50 for C[C@]12CCc3nc(Nc4ccccc4)sc3C1=CC[C@@H]1[C@@H]2CC[C@]2(C)/C(=N/NC(N)=S)CC[C@@H]12 , please?
Out: 3050 nM

###

# System: SNB-19 CNS
# METHOD_DESCRIPTION: NCI tumour cell line growth inhibition, 48 h
QUANTITY_MEASURED: TGI (µM)
The response must be a number in µM with no trailing unit.

In: Test system SNB-19 CNS; read-out TGI; what value for Cc1cc[c-]cc1.Fc1c[c-]c(-c2ccccn2)c(F)c1.[Pt+2].c1ccc(P(C[PH+](c2ccccc2)c2ccccc2)c2ccccc2)cc1 ?
Out: 12.8

In: And then Cc1ccc(C2(O)CC(c3ccc([N+](=O)[O-])o3)=NN2C(=O)COc2ccc(Cl)cc2)cc1 (stereo not given) , what is it?
Out: 67.3

###

Entries and their GI50 values follow.
# Tested on: EKVX NSCLC
# METHOD_DESCRIPTION: NCI tumour cell line growth inhibition, 48 h

| MOLECULE | QUANTITY_MEASURED | RESULT |
| --- | --- | --- |
| NC(CS/C(Cl)=C/Cl)C(=O)O (stereo unspecified) | GI50 | 31.7 µM |

In: Test system EKVX NSCLC; read-out GI50; what value for Cc1cn2c(/C=C3\C(=O)N(C)c4ccc(O)cc43)c(C)nc2s1 ?
Out: 14.8 µM

In: And then O=C(COc1ccc(/C=C2\CSc3ccccc3C2=O)cc1)Nc1nccs1 , what is it?
Out: 17.3 µM

In: And then [Au+].[Au+].[Au+].[c-]1nccn1Cc1ccccc1.[c-]1nccn1Cc1ccccc1.[c-]1nccn1Cc1ccccc1 , what is it?
Out: 11.6 µM

In: And then COc1ccc(Nc2c3ccccc3nc3occ(Cl)c23)cc1 , what is it?
Out: 1.76 µM

In: And then Cc1cc(I)cc(CN(C)CCCN2CCOCC2)c1O , what is it?
Out: 72.4 µM

In: And then CC(C)N=c1cc2n(-c3ccc(Cl)cc3)c3ccccc3nc-2cc1Nc1ccc(Cl)cc1 , what is it?
Out: 1.4 µM

In: And then COc1cccc(/C(COc2ccc3c(c2)oc(=O)c2cc(OC)ccc23)=N/O)c1 , what is it?
Out: 16.1 µM

In: And then CC(=O)/C=C/c1ccc(C#Cc2ccccc2)s1 , what is it?
Out: 17.7 µM

In: And then Oc1cn(-c2ccc(Cl)cc2)nc1-c1n[nH]c(=S)n1C1CCCCC1 , what is it?
Out: 15.5 µM

In: And then CC(C)S(=O)(=O)c1ccccc1Nc1nc(Nc2cccc(NC(=O)CN)c2)ncc1Cl , what is it?
Out: 1.5 µM

###

# System: ACHN renal
# METHOD_DESCRIPTION: NCI tumour cell line growth inhibition, 48 h
Entries and their GI50 values follow.

# count of solved cases: 6
| COMPOUND | GI50 |
| --- | --- |
| COc1ccc(C(=O)COc2cccc(/C=C3\Oc4ccc5ccccc5c4C3=O)c2)cc1 | 15.2 µM |
| CC(=O)/C=C/c1ccc(C#Cc2ccccc2)s1 | 16.3 µM |
| COc1ccc(Nc2c3ccccc3nc3occ(Cl)c23)cc1 | 1.44 µM |
| COc1ccc(-c2c[nH]c(=S)n2-c2ccc(OC)cc2)cc1 | > 50 µM |
| Cc1cc(I)cc(CN(C)CCCN2CCOCC2)c1O | > 100 µM |
| O=C(COc1ccc(/C=C2\CSc3ccccc3C2=O)cc1)Nc1nccs1 | 13.5 µM |

In: Recorded GI50 for NC(CS/C(Cl)=C/Cl)C(=O)O (stereo unspecified) , please?
Out: 78.9 µM

In: And then CCOC(=O)CNC(=O)c1ccccc1Nc1ccnc(C(F)(F)F)c1 , what is it?
Out: > 58.2 µM

In: And then O=C(Nc1ccc(Br)cc1)c1ccc(Cl)c(Cl)c1 , what is it?
Out: 2.83 µM

In: And then COc1cc2ncn(-c3cc(OCCc4ccccc4)c(C(N)=O)s3)c2cc1OC , what is it?
Out: > 25 µM

In: And then O=C(CSC(c1ccccc1)c1ccccc1)N/N=C/c1ccc(Cl)cc1Cl , what is it?
Out: 26.6 µM
